These data points were gathered from ChEMBL document CHEMBL5291721.

- SYSTEM TESTED: Alpha-2A adrenergic receptor (Homo sapiens, UniProt P08913); also: assay procedure not described here
- Sequence (P08913 whole entry): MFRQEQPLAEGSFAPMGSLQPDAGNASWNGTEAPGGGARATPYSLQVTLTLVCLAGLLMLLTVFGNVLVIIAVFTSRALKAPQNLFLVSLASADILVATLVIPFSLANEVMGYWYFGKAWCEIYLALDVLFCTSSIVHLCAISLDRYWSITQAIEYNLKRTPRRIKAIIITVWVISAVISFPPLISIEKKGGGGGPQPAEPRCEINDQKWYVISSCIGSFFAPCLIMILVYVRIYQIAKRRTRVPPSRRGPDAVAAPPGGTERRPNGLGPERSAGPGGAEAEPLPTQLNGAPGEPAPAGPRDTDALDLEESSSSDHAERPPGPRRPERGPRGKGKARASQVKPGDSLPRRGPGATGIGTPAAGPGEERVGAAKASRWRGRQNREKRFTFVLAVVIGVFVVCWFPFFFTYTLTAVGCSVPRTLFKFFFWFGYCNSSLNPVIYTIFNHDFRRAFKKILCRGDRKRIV
VALUE KIND: AC50

For orientation, consider the following solved cases.
{"COMPOUND": "CCNC(=O)/C=C(C)/C=C/C=C(C)/C=C/c1c(C)cc(OC)c(C)c1C [MOTRETINIDE]", "SYSTEM TESTED": "Alpha-2A adrenergic receptor (Homo sapiens, UniProt P08913)", "AC50": "> 30 µM"}
{"COMPOUND": "COc1ccc(OC)c(C(O)C(C)N)c1 (centres undefined) [METHOXAMINE]", "SYSTEM TESTED": "Alpha-2A adrenergic receptor (Homo sapiens, UniProt P08913)", "AC50": "25.9 µM"}
{"COMPOUND": "C[C@@H]1C[C@H]2[C@@H]3C[C@H](F)C4=CC(=O)C=C[C@]4(C)[C@@]3(F)[C@@H](O)C[C@]2(C)[C@@]1(OC(=O)c1ccco1)C(=O)SCF [FLUTICASONE FUROATE]", "SYSTEM TESTED": "Alpha-2A adrenergic receptor (Homo sapiens, UniProt P08913)", "AC50": "> 30 µM"}
{"COMPOUND": "O=C(O)c1ccccc1 [BENZOIC ACID]", "SYSTEM TESTED": "Alpha-2A adrenergic receptor (Homo sapiens, UniProt P08913)", "AC50": "> 30 µM"}
{"COMPOUND": "CCCCC(CC)CN1CN(CC(CC)CCCC)CC(C)(N)C1 (centres undefined) [HEXETIDINE]", "SYSTEM TESTED": "Alpha-2A adrenergic receptor (Homo sapiens, UniProt P08913)", "AC50": "14.4 µM"}

Inquiry: Give Alpha-2A adrenergic receptor (Homo sapiens, UniProt P08913) AC50 for CC(C)[C@@H]1CC[C@@H](C)C[C@H]1O [LEVOMENTHOL]
Reply text: > 30 µM

Inquiry: AC50 of C[C@@H]1C[C@H]2[C@@H]3C[C@H](F)C4=CC(=O)C=C[C@]4(C)[C@H]3[C@@H](O)C[C@]2(C)[C@@]1(O)C(=O)CO [PARAMETHASONE] on Alpha-2A adrenergic receptor (Homo sapiens, UniProt P08913)?
Reply text: > 30 µM

Inquiry: Report AC50 for C=CC(=O)Nc1cccc(Oc2nc(Nc3ccc(N4CCN(C)CC4)cc3)nc3ccsc23)c1 [OLMUTINIB] tested on Alpha-2A adrenergic receptor (Homo sapiens, UniProt P08913). Also: assay procedure not described here.
Reply text: 0.881 µM

Inquiry: Recorded AC50 for O=C(O)Cc1ccccc1Nc1c(Cl)cccc1Cl [DICLOFENAC] with Alpha-2A adrenergic receptor (Homo sapiens, UniProt P08913), please?
Reply text: > 3 µM
